Substrate: CC(C)C[C@@H](N)C(=O)O
METHOD SUMMARY: purified protein
RUN CONDITIONS: 50 mM potassium phosphate pH 8.0, 30 °C, air-saturated
So basically, if kcat/Km comes in under 80000 M⁻¹ s⁻¹ it's Condition met, and if it's 80000 M⁻¹ s⁻¹ or more it's Condition not met.

TvDAAO (Trigonopsis variabilis; S336A) (protein) MAKIVVIGAGVAGLTTALQLLRKGHEVTIVSEFTPGDLSIGYTSPWAGANWLTFYDGGKLADYDAVSYPILRELARSSPEAGIRLISQRSHVLKRDLPKLEVAMSAICQRNPWFKNTVDSFEIIEDRSRIVHDDVAYLVEFRSVCIHTGVYLNWLMSQCLSLGATVVKRRVNHIKDANLLHSSGSRPDVIVNCSGLFARFLGGVEDKKMYPIRGQVVLVRNSLPFMASFSSTPEKENEDEALYIMTRFDGTSIIGGCFQPNNWSSEPDPSLTHRILSRALDRFPELTKDGPLDIVRECVGHRPGREGGPRVELEKIPGVGFVVHNYGAAGAGYQSAYGMADEAVSYVERALTRPNL | Condition met
TvDAAO (Trigonopsis variabilis; S105A) (protein) MAKIVVIGAGVAGLTTALQLLRKGHEVTIVSEFTPGDLSIGYTSPWAGANWLTFYDGGKLADYDAVSYPILRELARSSPEAGIRLISQRSHVLKRDLPKLEVAMAAICQRNPWFKNTVDSFEIIEDRSRIVHDDVAYLVEFRSVCIHTGVYLNWLMSQCLSLGATVVKRRVNHIKDANLLHSSGSRPDVIVNCSGLFARFLGGVEDKKMYPIRGQVVLVRNSLPFMASFSSTPEKENEDEALYIMTRFDGTSIIGGCFQPNNWSSEPDPSLTHRILSRALDRFPELTKDGPLDIVRECVGHRPGREGGPRVELEKIPGVGFVVHNYGAAGAGYQSSYGMADEAVSYVERALTRPNL | Condition not met
TvDAAO (Trigonopsis variabilis; S67A) (protein, recombinant tvdaao gene in pET-33b(+) based plasmid, E. coli BL21(DE3) CodonPlus/pLysS; MonoQ purified; FAD homodimer; no tag stated) MAKIVVIGAGVAGLTTALQLLRKGHEVTIVSEFTPGDLSIGYTSPWAGANWLTFYDGGKLADYDAVAYPILRELARSSPEAGIRLISQRSHVLKRDLPKLEVAMSAICQRNPWFKNTVDSFEIIEDRSRIVHDDVAYLVEFRSVCIHTGVYLNWLMSQCLSLGATVVKRRVNHIKDANLLHSSGSRPDVIVNCSGLFARFLGGVEDKKMYPIRGQVVLVRNSLPFMASFSSTPEKENEDEALYIMTRFDGTSIIGGCFQPNNWSSEPDPSLTHRILSRALDRFPELTKDGPLDIVRECVGHRPGREGGPRVELEKIPGVGFVVHNYGAAGAGYQSSYGMADEAVSYVERALTRPNL | Condition not met

Attention now shifts to the item below.
I wonder whether TvDAAO (Trigonopsis variabilis) (protein, recombinant tvdaao gene in pET-33b(+) based plasmid, E. coli BL21(DE3) CodonPlus/pLysS; MonoQ purified; FAD homodimer; no tag stated) MAKIVVIGAGVAGLTTALQLLRKGHEVTIVSEFTPGDLSIGYTSPWAGANWLTFYDGGKLADYDAVSYPILRELARSSPEAGIRLISQRSHVLKRDLPKLEVAMSAICQRNPWFKNTVDSFEIIEDRSRIVHDDVAYLVEFRSVCIHTGVYLNWLMSQCLSLGATVVKRRVNHIKDANLLHSSGSRPDVIVNCSGLFARFLGGVEDKKMYPIRGQVVLVRNSLPFMASFSSTPEKENEDEALYIMTRFDGTSIIGGCFQPNNWSSEPDPSLTHRILSRALDRFPELTKDGPLDIVRECVGHRPGREGGPRVELEKIPGVGFVVHNYGAAGAGYQSSYGMADEAVSYVERALTRPNL has kcat/Km below 80000 M⁻¹ s⁻¹. Can you tell?
Condition met
